Please go through the items and note down their Decomposition efficiency of daidzin family in roasted soy flour.
test system: Crude diglycosidase; test: Examination of temperature in the conversion into isoflavone aglycons by diglycosidase using soybean materials; format: biochemical, Penicillium multicolor IAM7153; set-up: concentration or dose not given beside the values; conditions: 80 °C; heat treatment of enzyme: no; 1 h
Response body: numeric value in %, unit text excluded.

Decomposition efficiency of daidzin family in roasted soy flour reading for CC(=O)OC[C@H]1O[C@@H](Oc2ccc3c(=O)c(-c4ccc(O)cc4)coc3c2)[C@H](O)[C@@H](O)[C@@H]1O [acetyldaidzin, 6″-O-acetyldaidzin] : 49.1

Decomposition efficiency of daidzin family in roasted soy flour reading for O=c1c(-c2ccc(O)cc2)coc2cc(O)ccc12 [daidzein] : 47.7

Decomposition efficiency of daidzin family in roasted soy flour reading for O=c1c(-c2ccc(O)cc2)coc2cc(O[C@@H]3O[C@H](CO)[C@@H](O)[C@H](O)[C@H]3O)ccc12 [daidzin] : 3.2

Entry source: patent US7118895B2
